Test system: K562
Test: NCI tumour cell line growth inhibition, 48 h
Activity calls are given as the source filed them. No stated cut-off is given here; in the data, active = GI50 up to about 1.1 µM and inactive = higher.
For each record, write down the corresponding GI50.

Each of the following entries comes with a recorded value; kindly state GI50 for each.
1. Cc1ccc2[nH]c3c(C)c4cc[n+](C)cc4c(C)c3c2c1
2. Cc1ccc(S(=O)(=O)C2=c3ncccc3=C3C(=O)c4ccccc4C(=O)C32)cc1 (stereo unspecified)
3. CN=[S+]([O-])(c1ccccc1)c1ccccc1
4. c1csc(-c2cc(-c3ccsc3)c(-c3ccsc3)s2)c1
5. CC(C)(C)OC(=O)N1C(C2=COc3ccccc3O2)=COc2cccnc21

(A)
1. 1.41 µM (inactive)
2. > 95.9 µM (inactive)
3. > 100 µM (inactive)
4. > 100 µM (inactive)
5. 1.99 µM (inactive)
